Hello, the source for this data is PubChem BioAssay (NCATS), in case you need it.

Experiment: qHTS for Inhibitors of the Functional Ribonucleoprotein Complex (vRNP) of Lassa (LASV) Arenavirus: Viability assay - alamar blue signal for LASV Primary Screen (AID 1347083); also: nearly all actives have a fitted effect of over 80% in size
Conditions: cell viability, alamar blue fluorescence (LASV minigenome counter-screen); series mostly up to 57.5 µM
Inconclusive results are not listed. The source made the active and inactive calls. Calls follow the shape of the full dose curve; tested in HEK293 reporter line.
observedProperty: activity change, negative = reduced viability

compound=CCN[C@H]1CN(CCCOC)S(=O)(=O)c2sc(S(N)(=O)=O)cc21 result=inactive
compound=CCCc1nn(C)c2c(=O)[nH]c(-c3cc(S(=O)(=O)N4CCN(C)CC4)ccc3OCC)nc12 result=inactive
compound="Cc1ncc([N+](=O)[O-])n1CC(O)CCl (stereo not drawn)" result=inactive
compound="CCCCCCCN(CC)CCCC(O)c1ccc(NS(C)(=O)=O)cc1 (stereo not drawn)" result=inactive
compound=OC1(c2ccccc2)CCNCC1 result=inactive
compound="CC1CCc2c(N3CCC(O)CC3)c(F)cc3c(=O)c(C(=O)O)cn1c23 (stereo not drawn)" result=inactive
compound=CCN(CC)CCc1c[nH]c2ccccc12 result=inactive
compound=OC1(c2ccc(Cl)cc2)CCNCC1 result=inactive
compound=O=C1OC(c2ccc(O)c(S(=O)(=O)O)c2)(c2ccc(O)c(S(=O)(=O)O)c2)c2c(Br)c(Br)c(Br)c(Br)c21 result=inactive
compound=Nc1c(I)cc(I)c(C(=O)N(CCC(=O)O)c2ccccc2)c1I result=inactive
compound=C[C@@H](CN1CC(=O)NC(=O)C1)N1CC(=O)NC(=O)C1 result=inactive
compound="CCCNC(C)C(=O)Nc1ccccc1C (stereo not drawn)" result=inactive
compound=COC(=O)/C=C\C(=O)OC result=inactive
compound=COc1cc(-c2ccc(=O)[nH]n2)ccc1OC(F)F result=inactive
compound=CC(=O)OCC(COC(C)=O)OC(C)=O result=inactive
compound=CCCCCCCCCCCCCCCC(=O)NCCO result=inactive
compound=C[C@@H]1O[C@@H](OC[C@H]2O[C@@H](Oc3c(-c4ccc(O)c(O)c4)oc4cc(O)cc(O)c4c3=O)[C@H](O)[C@@H](O)[C@@H]2O)[C@H](O)[C@H](O)[C@H]1O result=inactive
compound=CC(=O)OCC1=C(C(=O)O)N2C(=O)[C@@H](NC(=O)Cc3cccs3)[C@H]2SC1 result=inactive
compound=O=c1[nH]c(=O)n([C@H]2C[C@H](O)[C@@H](CO)O2)cc1Br result=inactive
compound=CCOCCn1c(C2CCN(CCc3ccc(C(C)(C)C(=O)O)cc3)CC2)nc2ccccc21 result=inactive
compound=C[C@](N)(Cc1ccc(O)cc1)C(=O)O result=inactive
compound=O=C(O)CCCc1ccc(N(CCCl)CCCl)cc1 result=inactive
compound=O=C1NCC2(CCN(CCc3ccccc3)CC2)O1 result=inactive

----------
Tested on: C33A
Assay: Primary qHTS to identify gynecologic anti-cancer compounds using libraries of approved drugs and bioactive compounds (AID 1345084); also: nearly all actives have a fitted effect of over 55% in size
Conditions: Gynecologic cancer cell panel viability, ATPlite luminescence, 48 h; series mostly up to 57.5 µM
Records with an inconclusive call do not appear. Calls of active or inactive are those of the source. The call rests on the fitted dose curve; in most records, active means well fitted cell-killing curve with a large enough effect; inconclusive means small, poorly fitted or top-dose-only effect, or effect the other way; inactive means flat fitted curve, though single readings scatter.
observedProperty: outcome

molecule=O=[N+]([O-])O[C@H]1CO[C@H]2[C@@H]1OC[C@H]2O[N+](=O)[O-] observedproperty=outcome result=inactive
molecule=Oc1ccc(Cl)cc1 observedproperty=outcome result=inactive
molecule="O=c1c(C2CC(c3ccc(-c4ccc(Br)cc4)cc3)Cc3ccccc32)c(O)sc2ccccc12 (stereo unspecified)" observedproperty=outcome result=inactive
molecule=COC(=O)[C@@H](N)CCCN/C(N)=N/[N+](=O)[O-] observedproperty=outcome result=inactive
molecule=c1ccc(CN2CCNCC2)cc1 observedproperty=outcome result=inactive
molecule=O=C1c2ccccc2C(=O)C1C(=O)C(c1ccccc1)c1ccccc1 observedproperty=outcome result=inactive
